# Test system: 786-0 renal
# assay.overview: NCI tumour cell line growth inhibition, 48 h
experimental.readout: TGI

>>> assay_value("CCCCNC(=S)Nc1nc(C(=O)NNC(=S)NCc2ccccc2)cs1")
"> 100 µM"
>>> assay_value("O=C(O)Cn1ncn(NC(=O)Cc2ccccc2)c1=S")
"> 10 µM"
>>> assay_value("O=C1C(Cl)C(c2cccc(O)c2)N1n1cnc2ccccc2c1=O (stereo not given)")
"> 100 µM"
>>> assay_value("CC1Cc2c(cc(N)nc2Br)NC1=O (stereo not given)")
"> 100 µM"
>>> assay_value("C/C(O)=C(\\N=O)C(=O)NCCc1ccccc1")
"> 100 µM"

###

# Test system: SK-OV-3 ovarian
# assay.overview: NCI tumour cell line growth inhibition, 48 h
experimental.readout: GI50

>>> assay_value("CCN(Cc1cccc(OC)c1)c1ccc(CO)c(Cl)c1")
"8.52 µM"
>>> assay_value("C=C1C(=O)O[C@H]2[C@H]1CC/C(COC(=O)NCc1cc3ccccc3[nH]1)=C\\CC[C@@]1(C)O[C@@H]21")
"13.8 µM"
>>> assay_value("COc1ccc(-n2c(SCc3cc(OC)c(OC)c(OC)c3)nc3ccc(C)cc3c2=O)c(OC)c1")
"4.96 µM"
>>> assay_value("N[C@@H](Cc1c[nH]c2ccccc12)C(=O)NC1CCN(C(=O)c2c[nH]c3ccccc23)CC1")
"90.5 µM"
>>> assay_value("NC(=O)c1cnc(N[C@@H]2CCCC[C@@H]2N)nc1Nc1cccc(-n2nccn2)c1")
"4.14 µM"

###

Reported TGI values for a set of compounds
# Tested on: MALME-3M melanoma
# assay.overview: NCI tumour cell line growth inhibition, 48 h
experimental.readout: TGI

>>> assay_value("NC(=O)CC[C@H]1C(=O)N=C(N)N1C(=O)OCc1ccccc1")
"> 100 µM"
>>> assay_value("C=C1[C@@H](C)[C@H]2[C@H](Cc3ccccc3)NC(=O)[C@]23OC(=O)/C=C/[C@H](O)CCC[C@@H](C)C/C=C/[C@H]3[C@@H]1O")
"> 89 µM"
>>> assay_value("O=c1n(C2CCCCC2)c(=C(Cl)Cl)c(=C(Cl)Cl)n1C1CCCCC1")
"> 100 µM"
>>> assay_value("O=C1CCC(Cc2ccc(Cl)cc2Cl)C(=O)N1 (stereo unspecified)")
"> 100 µM"
>>> assay_value("CCCCCCCCCCCCCCCCCC(=O)OCC(CN(C)CCN(C)C)OC(=O)CCCCCCCCCCCCCCCCC (stereo unspecified)")
"> 100 µM"
>>> assay_value("Cc1ccccc1-c1c(N)nc(NC#N)nc1C(=O)Nc1ccccc1")
"> 100 µM"

###

# System: SK-MEL-28 melanoma
# assay.overview: NCI tumour cell line growth inhibition, 48 h; in the data active = GI50 below about 0.43 µM; inactive = the rest
Outcomes: active, inactive

>>> class("COCCn1cc(-c2csc(-c3c[nH]c4ccccc34)n2)c2cccnc21")
"inactive"
>>> class("COc1ccccc1-[n+]1cc(-c2ccc(-c3ccccc3)cc2)n2c1CCCCC2")
"active"
>>> class("C[C@@H]1C=C(CCCCCCCCCCC[C@H](O)[C@@H]2CCC(=O)O2)C(=O)O1")
"inactive"

###

# Tested on: OVCAR-3 ovarian
# assay.overview: NCI tumour cell line growth inhibition, 48 h
Reported GI50 values for a set of compounds
experimental.readout: GI50

>>> assay_value("COc1cc(Nc2nc3cc(N)cc(N)c3nc2-c2ccccc2)cc(OC)c1")
"3.9 µM"
>>> assay_value("Oc1ccc(/C=N\\Nc2ccccn2)c(O)c1")
"1.77 µM"
>>> assay_value("COc1ccc(-c2cc(-c3ccc(OC)c(OC)c3)nc(SCCCC(=O)NO)n2)cc1")
"1.69 µM"
>>> assay_value("CCCCn1c2cc(OCc3cn(-c4ccc(Cl)cc4)nn3)ccc2c2ccnc(C)c21")
"6.41 µM"
>>> assay_value("C[C@@H]1C=C(CCCCCCCCCCC[C@H](O)[C@@H]2CCC(=O)O2)C(=O)O1")
"16.4 µM"
>>> assay_value("COc1ccc2[nH]c(-c3ccccn3)cc(=O)c2c1")
"> 100 µM"
>>> assay_value("CN(C)CCCn1c2c(c3cnccc3c1=O)C(=O)c1ccccc1-2")
"1.1 µM"
>>> assay_value("C[C@]12CCC3[C@@H](C[C@@H]4SC(Nc5ccccc5)=N[C@@]45CC(=O)CC[C@]35C)[C@@H]1CCC2=O (some centres not stated)")
"4.41 µM"
>>> assay_value("O=S(=O)([O-])c1cccc2cccc(N=Cc3ccccc3[O-])c12.O=S(=O)([O-])c1cccc2cccc(N=Cc3ccccc3[O-])c12.[O]=[U]=[O]")
"> 100 µM"
>>> assay_value("CSc1nc2c(c(=O)[nH]1)N=C1c3ccccc3C(=O)C1C(c1ccc(F)cc1)N2 (configuration not stated)")
"3.38 µM"
>>> assay_value("CC(=O)O[C@H]1C(=O)[C@@]2(C)C(C(OC(=O)c3ccccc3)[C@]3(O)CC(OC(=O)[C@H](OC(=O)CCC(=O)O)C(NC(=O)c4ccccc4)c4ccccc4)C(C)=C1C3(C)C)C1(OC(C)=O)COC1C[C@@H]2OC(=O)CCC(=O)O (some centres not stated)")
"1.89 µM"
>>> assay_value("CCN(CC)c1ccc(/C=C\\c2cc(C)c3cc(C)ccc3n2)cc1")
"3.24 µM"

###

# Tested on: OVCAR-5 ovarian
# assay.overview: NCI tumour cell line growth inhibition, 48 h
Reported TGI values for a set of compounds
experimental.readout: TGI

>>> assay_value("O=C1NC(=S)N/C1=C\\c1ccc(Sc2ccccc2C(=O)O)s1")
"> 100 µM"
>>> assay_value("CCOC(=O)c1c(SCCN2CCCCC2)n(-c2ccccc2)c(=S)n(-c2ccccc2)c1=O")
"> 100 µM"
>>> assay_value("CCn1c(O)c(C(=O)NC(C)c2ccc([N+](=O)[O-])cc2)c(=O)n(CC)c1=S (stereo not given)")
"6.77 µM"
>>> assay_value("CC(=O)OC1C(=O)C(O)C(C)OC1O[C@@H]1C[C@@]2(C)[C@@H]3CC=C4[C@@H](C[C@H](O)C(=O)C4(C)C)[C@]3(C)C(=O)C[C@]2(C)[C@H]1[C@@](C)(O)C(=O)/C=C/C(C)(C)O (stereo not given in full)")
"> 10 µM"
>>> assay_value("CN1C(=O)C(CCO)(C(C)(C)C)c2ccccc21 (stereo not given)")
"> 100 µM"
>>> assay_value("Oc1ccc(O)c(Sc2nnc(CCCCCCCCc3nnc(Sc4cc(O)ccc4O)o3)o2)c1")
"> 100 µM"
>>> assay_value("O=C1CCc2cc3c(cc21)C(C(=O)O)CC3 (stereo not given)")
"> 100 µM"
>>> assay_value("c1ccc(Cc2nc3ccc(Nc4ncnc5ccccc45)cc3[nH]2)cc1")
"> 25 µM"
>>> assay_value("N#CC(C(=O)/C(=N/N)C(C#N)c1ccc(Cl)cc1)c1ccc(Cl)cc1 (stereo not given)")
"> 100 µM"
>>> assay_value("O=C1c2ccccc2C2(c3ccc(Cl)cc3)N[C@@H]3CCCC[C@@H]3N12 (stereo not given in full)")
"> 100 µM"
>>> assay_value("Cc1cc(C)c(C#N)c(SC(=S)NC(=O)c2ccccc2)n1")
"> 100 µM"
>>> assay_value("C=C1[C@@H](C)[C@H]2[C@H](Cc3ccccc3)NC(=O)[C@]23OC(=O)/C=C/[C@H](O)CCC[C@@H](C)C/C=C/[C@H]3[C@@H]1O")
"> 100 µM"
>>> assay_value("CN(C)CCCn1c2c(c3cnccc3c1=O)C(=O)c1ccccc1-2")
"9.04 µM"
>>> assay_value("COc1ccc(-c2cc(-c3ccc(OC)c(OC)c3)nc(SCCCC(=O)NO)n2)cc1")
"6.25 µM"
>>> assay_value("CCCCCCCCCC(=O)CC(=O)c1ccc(O)cc1O")
"94 µM"
>>> assay_value("CCn1c(SCc2nnc(Nc3ccccc3)s2)nc2ccccc2c1=O")
"31.1 µM"
>>> assay_value("OC1(C(O)(c2ccc(-c3ccccc3)cc2)c2ccc(-c3ccccc3)cc2)CCCCC1")
"> 100 µM"
>>> assay_value("O=S(=O)([O-])c1cccc2cccc(N=Cc3ccccc3[O-])c12.O=S(=O)([O-])c1cccc2cccc(N=Cc3ccccc3[O-])c12.[O]=[U]=[O]")
"> 100 µM"
>>> assay_value("CC(CN(CP(=O)([O-])[O-])CP(=O)([O-])[O-])N(CP(=O)([O-])[O-])CP(=O)([O-])[O-].N.N.[Pt+2] (stereo not given)")
"> 100 µM"
>>> assay_value("CCO[C@@H]1OC(=O)[C@](C)(C(C)=O)[C@@H]1C")
"> 100 µM"

###

# Test system: MDA-MB-435
# assay.overview: NCI tumour cell line growth inhibition, 48 h
*1 amine or outer side, *2 acyl side, *3 side chain or, on linkers, in order; H or OH if unused. Where a SMILES comes first, the peptide text is derived from it. Bridges are numbered along the chain shown (N, C = ends). Roman numbers before positions name the chains, in order. [ ]: non-standard residue; d: D form. Actinocin(9to1) = Cc1c2oc3c(C)ccc(C(=O)[*:1])c3nc-2c(C(=O)[*:2])c(N)c1=O; NMeV = CN[CH](C(=O)O)C(C)C; Sar = CNCC(=O)O
experimental.readout: TGI

>>> assay_value("CCCC(CC)c1cc(O)c(O)cc1C(CC)CCC (stereo unspecified)")
"> 10 µM"
>>> assay_value("Cc1sc2nc3n(sc4nc5sc(C)c(C)c5c(=O)n43)c(=O)c2c1C")
"> 100 µM"
>>> assay_value("CCCC1c2c(ccc3ccccc23)Oc2ccc3ccccc3c21")
"> 100 µM"
>>> assay_value("CCOC(=O)c1nc2ccccc2nc1Nc1ccc(F)cc1")
"> 100 µM"
>>> assay_value("Cc1c2oc3c(C)ccc(C(=O)NC4C(=O)NC(Cc5ccc(O)cc5)C(=O)N5CCCC5C(=O)N(C)CC(=O)N(C)C(C(C)C)C(=O)OC4C)c3nc-2c(C(=O)NC2C(=O)NC(Cc3ccc(O)cc3)C(=O)N3CCCC3C(=O)N(C)CC(=O)N(C)C(C(C)C)C(=O)OC2C)c(N)c1=O (stereo unspecified) (I: TYP[Sar][NMeV] / II: TYP[Sar][NMeV]; ester I:1-I:C, II:1-II:C; linker I:N-II:N via Actinocin(9to1); configuration not given here)")
"> 100 µM"
>>> assay_value("O=C1/C(=C/C=C/c2ccccc2)CCC1CNc1ccc(Br)cc1 (stereo unspecified)")
"> 100 µM"
>>> assay_value("S=c1oc(CCCCCCCCc2nn(CNc3ccc(Cl)cc3)c(=S)o2)nn1CNc1ccc(Cl)cc1")
"> 100 µM"
>>> assay_value("COC(C/C=C\\C=C\\CC/C=C/CC(C)/C=C/C(=C\\C(=O)O)CC(=O)O)/C(C)=C\\C=C(/C)C(=O)O (stereo unspecified)")
"> 100 µM"
>>> assay_value("O=C1CCC(Cc2ccc(Cl)cc2Cl)C(=O)N1 (stereo unspecified)")
"> 100 µM"
>>> assay_value("CCCC[C@H]1C(=O)O[C@H](C)[C@H](NC(=O)c2cccc(NC=O)c2O)C(=O)O[C@@H](C)[C@@H]1OC(=O)CC(C)C")
"44.6 µM"
>>> assay_value("CCOP(=O)(OCC)C(NC(c1ccccc1)c1ccccc1)c1ccccc1 (stereo unspecified)")
"8.89 µM"
>>> assay_value("CC(C)Oc1cc2c(cc1O)CC[C@@H]1[C@@H]2CC[C@]2(C)[C@@H](O)CC[C@@H]12")
"10.9 µM"
>>> assay_value("C/C(=N/S(=O)(=O)c1ccc(Cl)c(Cl)c1)OCC(C)(C)C")
"> 100 µM"
>>> assay_value("COc1ccc(OC)c(-c2cn3c(n2)sc2ccccc23)c1")
"> 100 µM"
>>> assay_value("OCc1cn(Cc2cccc(Cl)c2)c2ccccc12")
"35.5 µM"
>>> assay_value("Cn1cnc(/C=C/C#N)c1")
"> 100 µM"
>>> assay_value("O=[N+]([O-])c1cccc([N+](=O)[O-])c1Cl")
"35.3 µM"
>>> assay_value("Cn1c(O)c(/C=N/c2ncccn2)c(=O)[nH]c1=O")
"> 100 µM"
>>> assay_value("CCOC(=O)c1c(SCCN2CCCCC2)n(-c2ccccc2)c(=S)n(-c2ccccc2)c1=O")
"31.5 µM"
>>> assay_value("CC(C)CCCC(C)[C@H]1CC[C@H]2NCCCC[C@]12C (stereo partly specified)")
"4.1 µM"
>>> assay_value("COC(=O)NC(Nc1ccc(C)cc1)(C(F)(F)F)C(F)(F)F")
"> 100 µM"

Values were extracted from PubChem BioAssay (NCI).
